Examples of molecules with documented Activity follow.
molecular target: Beta-lactamase OXA-23 (Acinetobacter baumannii) (UniProt Q9L4P2); test: Activity of Acinetobacter baumannii OXA-23 relative to Cephaloridine

| item.smiles | system.under.test | relation.operator | Activity, % |
| --- | --- | --- | --- |
| CC1(C)S[C@@H]2[C@H](NC(=O)Cc3ccccc3)C(=O)N2[C@H]1C(=O)O | Beta-lactamase OXA-23 (Acinetobacter baumannii) (UniProt Q9L4P2) | = | 120 |
| C[C@@H](O)[C@H]1C(=O)N2C(C(=O)O)=C(S[C@@H]3CN[C@H](C(=O)N(C)C)C3)[C@H](C)[C@H]12 | Beta-lactamase OXA-23 (Acinetobacter baumannii) (UniProt Q9L4P2) | = | 0.029 |
| C[C@@H](O)[C@H]1C(=O)N2C(C(=O)O)=C(SCCNC=N)C[C@H]12 | Beta-lactamase OXA-23 (Acinetobacter baumannii) (UniProt Q9L4P2) | = | 0.2 |
| CC(C)(O/N=C(\C(=O)N[C@@H]1C(=O)N2C(C(=O)[O-])=C(C[n+]3ccccc3)CS[C@H]12)c1csc(N)n1)C(=O)O | Beta-lactamase OXA-23 (Acinetobacter baumannii) (UniProt Q9L4P2) | < | 0.00093 |
| C[C@@H](O)[C@H]1C(=O)N2C(C(=O)O)=C(S[C@@H]3CN[C@H](CNS(N)(=O)=O)C3)[C@H](C)[C@H]12 | Beta-lactamase OXA-23 (Acinetobacter baumannii) (UniProt Q9L4P2) | = | 0.044 |
